Taken from the supplement of paper PMC6555819.

Parameter PBM binding z-score: see the listing below.
# Test system: PPARa:RXRa (NR concentration 270 nM, RXRa partner concentration 90 nM)
# METHOD SUMMARY: PBM binding z-score (relative to random genomic background probes); higher = stronger binding; sequences stand for … in GC…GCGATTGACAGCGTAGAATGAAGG

SEQUENCE INPUT | ASSAY TARGET | PBM binding z-score
ATCGAAAGGTCGTGAGGTGGGTATACAGAAAGGC | PPARa:RXRa (NR concentration 270 nM, RXRa partner concentration 90 nM) | 4.96
AGTCAAAGTTCACTAGGAAACGTAAGATTCAGCT | PPARa:RXRa (NR concentration 270 nM, RXRa partner concentration 90 nM) | 4.1
CAGCCTAGGTCAGGGCCAGTAGAGGAGGAACGTT | PPARa:RXRa (NR concentration 270 nM, RXRa partner concentration 90 nM) | 1.97
TCGAGTAGGTTAGTCGGGGCATTCTGCCAACATA | PPARa:RXRa (NR concentration 270 nM, RXRa partner concentration 90 nM) | 0.377
AGTCAAAGTTCAGGACGAGGTAACGCAAAGCACG | PPARa:RXRa (NR concentration 270 nM, RXRa partner concentration 90 nM) | 3.33
TCTTGTAGATCAGCAGGTTAAGATAGCTGGCCAA | PPARa:RXRa (NR concentration 270 nM, RXRa partner concentration 90 nM) | 0.692
GGAACGAGGGCATTCGAGTTGATAGTATGGCGAT | PPARa:RXRa (NR concentration 270 nM, RXRa partner concentration 90 nM) | 1.62
TCGAGTACGTTACCAATGGGGCATTCAGCTTTCT | PPARa:RXRa (NR concentration 270 nM, RXRa partner concentration 90 nM) | 0.16

QUERY: Sample GCATATAGGTAATACAAGGTGAAACTCCGATTGT — what was its PBM binding z-score?
RESULT: 1.83

QUERY: What do you get for ATCTCTAGGTATAGTTCAGTGAAAGATCGATAGA ?
RESULT: 0.726
